# Measured On: purified HLA DRB1*0404 (human)
# Assay Explanation: competition with 125I-labelled reference peptide, purified HLA
Readout Kind: pIC50
API: returns pIC50 as number; meaning -log10 of concentration in mol/L.

For orientation, consider the following solved cases.
Binder	pIC50
AGLLVSDGGPNLYNI (modifications not checked) [Flu.PB1.590]	5.46
NNMINNDLGPATAQM (modifications not checked) [Flu.PB1.535]	5.74

Please find the next binder below.
Ask | Please look at this binder and report its pIC50: AKSMEYDAVATTHSW (modifications not checked) [Flu.PB1.655]
Reply | 6.19
